Test: Human HepG2 cell viability assay in 384 well format
Type: toxicity, cell-based
Set-up: dose 125 nL, time 70.5 hour; concentration not given beside the values
Settings: HepG2 cells, read-out: Inhibition
Listed below: cytotoxicity at 70.5 h values for each entry.
Answer with a number only, understood to be in %.

Known cytotoxicity at 70.5 h results, listed for orientation:
{"compound": "CNC(=O)C(NC(=O)c1c(C)noc1C)c1ccc(F)c(F)c1 (configuration not stated)", "unit abbrev": "%", "cytotoxicity at 70.5 h": 2.39}
{"compound": "Cc1nccn1CCCNc1ncccc1C#N", "unit abbrev": "%", "cytotoxicity at 70.5 h": -13.8}
{"compound": "COC(=O)c1ccc(N2CCN(C(=O)C3CCC3)C(C)C2)cc1 (configuration not stated)", "unit abbrev": "%", "cytotoxicity at 70.5 h": 17.6}
{"compound": "O=C(CN1CCCC1c1nc(-c2ccccn2)no1)N1CCNCC1 (configuration not stated)", "unit abbrev": "%", "cytotoxicity at 70.5 h": -4.93}
{"compound": "COc1ccc(CN2CCC3(CCCN(C)C3=O)C2)c(Cl)c1OC (configuration not stated)", "unit abbrev": "%", "cytotoxicity at 70.5 h": 0.156}

Problem: What value of measured cytotoxicity at 70.5 h is listed for Cc1ccsc1CN(Cc1cccnc1)C1CC(C)(C)NC(C)(C)C1 ?
Solution: 5.95

Problem: What value of measured cytotoxicity at 70.5 h is listed for CC1(C)[C@H](Cc2cc(CN3CCCCC3)on2)C[C@@H]1NS(C)(=O)=O ?
Solution: -4.26

Problem: What value of measured cytotoxicity at 70.5 h is listed for c1ccc(CN2CCc3c(COCC4CC4)cncc3C2)nc1 ?
Solution: -11.4

Problem: What value of measured cytotoxicity at 70.5 h is listed for CS(=O)(=O)N1C[C@@H]2OCC(=O)N(CC3CC3)[C@@H]2C1 ?
Solution: -7.03

Problem: What value of measured cytotoxicity at 70.5 h is listed for O=C(C1CCCCO1)N1CCc2ncnc(NCc3ccon3)c2CC1 (configuration not stated) ?
Solution: -9.14

Problem: What value of measured cytotoxicity at 70.5 h is listed for O[C@@H]1C[C@@H](c2nc(-c3ccccc3)no2)N(CC2CCCCC2)C1 ?
Solution: -12.5
